system tested: CAL PDZ (human, UniProt Q9HD26)
Where no end group is shown, it is not given here.
readout name: Ki

In: Tell us which Ki value is on record for Ac-WQVTRV [kCAL01]
Out: ~1000 nM

Measured values drawn from patent US20180318382 for this set.
